Origin of values: ChEMBL document CHEMBL1129482

We begin with a simple list: items and their reported pIC50.
assay: Inhibitory activity against herpes simplex virus type 2 (HSV 2) strain 186 in Vero cells.; type: functional, cell-based
pIC50: −log10 of the molar value.

{"columns": ["molecule", "pIC50"],
 "data": [
  ["O=c1[nH]c(=O)n([C@H]2CC(O)C(CO)S2)cc1[N+](=O)[O-] (stereo partly specified)", 4.57],
  ["COc1cn(C2CC(O)C(CO)S2)c(=O)[nH]c1=O (stereo unspecified)", "< 4.00"],
  ["C/C=C/c1cn([C@H]2CC(O)C(CO)S2)c(=O)[nH]c1=O (stereo partly specified)", "< 4.70"]
]}

INPUT: I'd like to know its pIC50. The molecule in question is O=c1[nH]c(=O)n([C@H]2CC(O)C(CO)S2)cc1CC(F)(F)F (stereo partly specified)
OUTPUT: < 4.00

INPUT: # repeat for O=c1[nH]c(=O)n([C@H]2CC(O)C(CO)S2)cc1C1CC1 (stereo partly specified)
OUTPUT: < 4.00

INPUT: C=Cc1cn([C@H]2CC(O)C(CO)S2)c(=O)[nH]c1=O (stereo partly specified) , same question.
OUTPUT: < 4.00

* * *

system: Human alphaherpesvirus 3; experiment: Inhibitory activity against varicella zoster virus (VZV) strain G31 in MRC-5 cells.; type: functional, organism-based; conditions: Human alphaherpesvirus 3, MRC5
experimental readout: IC50

{"columns": ["molecule", "subject of test", "IC50"],
 "data": [
  ["N#Cc1cn([C@H]2CC(O)C(CO)S2)c(=O)[nH]c1=O (some centres undefined)", "Human alphaherpesvirus 3", "> 100 µM"]
]}

INPUT: Request body: readout IC50, system Human alphaherpesvirus 3, query COCc1cn(C2CC(O)C(CO)S2)c(=O)[nH]c1=O (centres undefined) . Return the value.
OUTPUT: > 10 µM

INPUT: Thanks! And COCCc1cn([C@H]2CC(O)C(CO)S2)c(=O)[nH]c1=O (some centres undefined) ?
OUTPUT: > 10 µM

INPUT: Now consider O=C1NC(=O)N(C2CC(O)C(CO)S2)C2CCCC12 (centres undefined) and answer again.
OUTPUT: > 40 µM
